- Test details: Tanguay_ZF_120hpf_ActivityScore_legacy: (Legacy) Oregon State University Tanguay Lab 120 Hour Post-fertilization zebrafish Assay Score for Activity (AID 2283742)
Calls of active or inactive are those of the source. Rule for the calls: active = hit-call score of the fitted dose curve at least 0.9, where 1 is the maximum; inconclusive = response in the unintended direction; inactive = score below 0.9.
Select the matching outcome among active, inactive

# count of solved cases: 2
Compound	Assigned category
CC1=NNC(=O)N(/N=C/c2cccnc2)C1	inactive
CON=C(C(=O)OC)c1ccccc1CON=C(C)c1cccc(C(F)(F)F)c1	inactive

### Prompt State the result this test recorded for CCOP(=S)(OCC)SCCSCC .
### Response inactive

### Prompt For C[N+]1(C)CCCCC1 , what call appears in the results of this test?
### Response inactive

### Prompt How was N#CSCSC#N classified in this test?
### Response active

### Prompt Field: outcome | Entry: CCOP(=S)(OCC)Oc1ccc2c(C)c(Cl)c(=O)oc2c1
### Response inactive

### Prompt Assay result, entry Cc1nn(-c2cc(NS(C)(=O)=O)c(Cl)cc2Cl)c(=O)n1C(F)F — outcome?
### Response inactive

### Prompt Returns: the outcome recorded for CN(C)C(=O)Nc1cccc(C(F)(F)F)c1 in this assay.
### Response inactive

---

- Read-out: Broad substrate specificity ATP-binding cassette transporter ABCG2 (Homo sapiens) (UniProt Q9UNQ0)
- Sequence (Q9UNQ0 whole entry, looked up): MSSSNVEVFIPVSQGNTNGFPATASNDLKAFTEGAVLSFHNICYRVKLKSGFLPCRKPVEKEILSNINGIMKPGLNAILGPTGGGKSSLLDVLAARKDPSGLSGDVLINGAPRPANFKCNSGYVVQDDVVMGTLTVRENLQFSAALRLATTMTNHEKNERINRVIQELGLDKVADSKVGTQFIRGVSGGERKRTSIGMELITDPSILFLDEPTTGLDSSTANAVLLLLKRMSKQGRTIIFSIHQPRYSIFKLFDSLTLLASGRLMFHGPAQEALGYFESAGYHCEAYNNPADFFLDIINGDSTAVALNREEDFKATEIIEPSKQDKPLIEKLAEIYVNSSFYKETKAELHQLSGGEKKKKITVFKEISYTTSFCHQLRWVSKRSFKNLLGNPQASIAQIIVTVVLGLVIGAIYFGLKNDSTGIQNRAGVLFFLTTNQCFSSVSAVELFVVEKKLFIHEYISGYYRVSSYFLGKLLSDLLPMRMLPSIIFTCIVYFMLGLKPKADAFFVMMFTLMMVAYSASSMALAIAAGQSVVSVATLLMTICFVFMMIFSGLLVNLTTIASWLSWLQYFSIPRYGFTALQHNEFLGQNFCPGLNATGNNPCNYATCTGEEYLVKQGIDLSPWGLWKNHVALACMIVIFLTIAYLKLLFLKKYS
- Test details: CLD_ABCG2_24hr: CellzDirect (CLD) Gene Expression Assay for ABC Transporter (ABCG2) at 24 hours (AID 2283685)
Results filed as inconclusive are left out. Calls of active or inactive are those of the source. The calls were made as follows: active = hit-call score of the fitted dose curve at least 0.9, where 1 is the maximum; inconclusive = response in the unintended direction; inactive = score below 0.9.
Please reply with one of these outcomes: 1 (active), 0 (inactive)

In [3]: df
Out[3]:
                                   compound  assigned_category
0                        CCCSP(=O)(OCC)SCCC                  0
1              CCc1cccc(CC)c1N(COC)C(=O)CCl                  0
2                  CCCCOC(=O)c1ccccc1C(=O)O                  0
3  CCOC(=O)CC(SP(=O)(OC)OC)C(=O)OCC (stereo not drawn)                  0
4  CC(COc1ccc(Oc2ccccc2)cc1)Oc1ccccn1 (stereo not drawn)                  0

Next item in the queue.
### Prompt Outcome logged for CCOP(=S)(Oc1cnc(C(C)(C)C)nc1)OC(C)C (stereo not drawn) in this assay:
### Response 0

---

- System: Signal transducer and activator of transcription 3 (Homo sapiens) (UniProt P40763)
- Sequence (P40763 whole entry, looked up): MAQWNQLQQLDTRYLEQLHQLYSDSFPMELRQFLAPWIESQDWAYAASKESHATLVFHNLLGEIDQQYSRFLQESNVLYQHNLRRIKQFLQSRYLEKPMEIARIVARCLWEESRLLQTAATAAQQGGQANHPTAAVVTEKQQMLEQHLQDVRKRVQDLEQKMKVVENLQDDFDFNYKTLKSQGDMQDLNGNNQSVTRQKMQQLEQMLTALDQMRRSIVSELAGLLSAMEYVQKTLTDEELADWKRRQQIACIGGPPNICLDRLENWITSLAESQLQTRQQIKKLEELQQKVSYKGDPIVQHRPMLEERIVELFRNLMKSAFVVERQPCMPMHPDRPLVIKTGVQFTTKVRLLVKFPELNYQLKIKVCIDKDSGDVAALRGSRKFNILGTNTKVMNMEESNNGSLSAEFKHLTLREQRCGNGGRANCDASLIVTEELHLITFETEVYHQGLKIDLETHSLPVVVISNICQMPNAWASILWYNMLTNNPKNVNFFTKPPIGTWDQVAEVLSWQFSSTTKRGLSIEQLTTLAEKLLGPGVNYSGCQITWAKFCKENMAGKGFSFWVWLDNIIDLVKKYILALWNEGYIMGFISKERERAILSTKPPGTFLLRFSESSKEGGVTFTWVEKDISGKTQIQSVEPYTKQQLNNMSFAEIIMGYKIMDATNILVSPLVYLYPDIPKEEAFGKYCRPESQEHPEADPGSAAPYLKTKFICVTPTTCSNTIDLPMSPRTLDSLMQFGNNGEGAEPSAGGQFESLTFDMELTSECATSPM
- Test details: ATG_STAT3_CIS: Attagene CIS-FACTORIAL HepG2 Assay for human Signal Transducer and Activator of Transcription 3 (STAT3) (AID 2282963)
- Protocol conditions: HepG2, Attagene cis-factorial STAT3 reporter transcription; actives raise or lower the signal
- Experimental: ATG_CIS is a cell-based, multiplexed-readout assay that uses HepG2, a human liver cell line, with measurements taken at 24 hours after chemical dosing in a 24-well plate.ATG_STAT3_CIS is one of 52 assay component(s) measured or calculated from the ATG_CIS assay. […] This assay endpoint, ATG_STAT3_CIS, was analyzed with bidirectional fitting relative to DMSO as the negative control and baseline of activity. […]
The source made the active and inactive calls. The calls were made as follows: active = hit-call score of the fitted dose curve at least 0.9, where 1 is the maximum; inactive = score below 0.9.
Mark one answer only. Choices: class 1 (active), class 0 (inactive)

Compound	Assigned category
COP(=O)(NC(C)=O)SC (configuration not stated)	class 0
Cc1cc(C2CC2)nc(Nc2ccccc2)n1	class 0
CC(C)N(C(=O)SCC(Cl)=C(Cl)Cl)C(C)C	class 0
CCOP(=S)(OCC)Oc1ccc([N+](=O)[O-])cc1	class 0

### Prompt Could you please tell me the result logged for CC(COc1ccc(Oc2ccccc2)cc1)Oc1ccccn1 (configuration not stated) in this assay?
### Response class 0

### Prompt What did the test return for COP(=O)(OC)C(O)C(Cl)(Cl)Cl (configuration not stated) ?
### Response class 0

### Prompt I'd appreciate the recorded outcome for CCOC(=O)COc1cc(-c2nn(C)c(OC(F)F)c2Cl)c(F)cc1Cl from this test.
### Response class 0

### Prompt Call for entry CCC(CC)Nc1c([N+](=O)[O-])cc(C)c(C)c1[N+](=O)[O-] :
### Response class 0

### Prompt Per the records of this test, what outcome belongs to Nc1nc(N)nc(NC2CC2)n1 ?
### Response class 0

### Prompt What is the recorded call for this compound in the test? CCOC(=O)CC(SP(=O)(OC)OC)C(=O)OCC (configuration not stated)
### Response class 0

### Prompt What did this assay record as the result for CN(C)NC(=O)CCC(=O)O ?
### Response class 0

### Prompt Entry Cc1nn(-c2cc(NS(C)(=O)=O)c(Cl)cc2Cl)c(=O)n1C(F)F : call = ?
### Response class 0

### Prompt In this assay, the call recorded for CCc1cccc(C)c1N(C(=O)CCl)C(C)COC (configuration not stated) was what?
### Response class 0

### Prompt Dear all, I need the recorded test outcome for S=C1NCCN1 , thank you.
### Response class 0

### Prompt Identify the outcome logged in this assay for the compound shown: CC[C@H](C)[C@H]1O[C@]2(C=C[C@@H]1C)C[C@@H]1C[C@@H](C/C=C(\C)[C@@H](O[C@H]3C[C@H](OC)[C@@H](O[C@H]4C[C@H](OC)[C@@H](NC)[C@H](C)O4)[C@H](C)O3)[C@@H](C)/C=C/C=C3\CO[C@@H]4[C@H](O)C(C)=C[C@@H](C(=O)O1)[C@]34O)O2
### Response class 0

### Prompt Each compound tested received a call. Report the one for CCC(=NOC/C=C/Cl)C1=C(O)CC(C2CCOCC2)CC1=O (configuration not stated) .
### Response class 0

### Prompt I'd appreciate the recorded outcome for CSc1nc(NC(C)C)nc(NC(C)C)n1 from this test.
### Response class 0

---

- Test details: APR_HepG2_MitoMembPot_1hr: Apredica 1-hour HepG2 Assay for Mitochondrial Membrane Potential (AID 2282675)
- Protocol conditions: imaging, actives raise or lower the signal
The source made the active and inactive calls. How the source made its calls: active means hit-call score of the fitted dose curve at least 0.9, where 1 is the maximum; inactive means score below 0.9.
Write down one outcome, taken from class 1 for active, class 0 for inactive

>>> df
                                   compound  assigned_category
0     CCCOCC(=Nc1ccc(Cl)cc1C(F)(F)F)n1ccnc1            class 0
1  O=[N+]([O-])c1cc(C(F)(F)F)c(Cl)c([N+](=O)[O-])c1Nc1ncc(C(F)(F)F)cc1Cl            class 1
2  Cc1nn(-c2cc(NS(C)(=O)=O)c(Cl)cc2Cl)c(=O)n1C(F)F            class 0
3  CCOP(=O)(SC(C)CC)N1CCSC1=O (stereo unspecified)            class 0
4  CN(C)[C@@H]1C(=O)C(C(N)=O)=C(O)[C@@]2(O)C(=O)C3=C(O)c4c(O)cccc4[C@@](C)(O)[C@H]3[C@H](O)[C@@H]12            class 0

### Prompt Check the results log: what was the call for CCc1cnc(C2=NC(C)(C(C)C)C(=O)N2)c(C(=O)O)c1 (stereo unspecified) ?
### Response class 0

### Prompt Recorded call for CCCSP(=O)(OCC)Oc1ccc(Br)cc1Cl (stereo unspecified) ?
### Response class 0

### Prompt Please let me know the test result on file for CCCCOC(=O)[C@@H](C)Oc1ccc(Oc2ccc(C#N)cc2F)cc1 .
### Response class 0

### Prompt Per the assay record, what outcome was assigned to CCOP(=O)(OCC)Oc1cc(C)nc(C(C)C)n1 ?
### Response class 0

### Prompt Per the records of this test, what outcome belongs to COc1ccc(C(=CC(=O)N2CCOCC2)c2ccc(Cl)cc2)cc1OC ?
### Response class 0

### Prompt Field: outcome | Entry: CN(C)NC(=O)CCC(=O)O
### Response class 0

---

- Read-out: E-selectin (Homo sapiens)
- Test details: BSK_SAg_Eselectin: BioMAP Diversity Plus: SAg Assay for Eselectin Biomarker Activity (AID 2283091)
- Protocol conditions: primary human HUVEC with PBMC; actives raise or lower the signal
The source made the active and inactive calls. Rule for the calls: active = hit-call score of the fitted dose curve at least 0.9, where 1 is the maximum; inactive = score below 0.9.
The categories you may choose from are Yes (active), No (inactive)

Study these solved cases before continuing.
                                   compound  assigned_category
0    Cc1ccn2nc(S(=O)(=O)Nc3c(F)cccc3F)nc2n1                 No
1  CCCCOC(=O)[C@@H](C)Oc1ccc(Oc2ccc(C#N)cc2F)cc1                 No
2                  CCC(=O)Nc1ccc(Cl)c(Cl)c1                 No
3  COc1cccc(C(=O)NN(C(=O)c2cc(C)cc(C)c2)C(C)(C)C)c1C                 No

### Prompt Hi team, can someone confirm the assay call for CC(C)[C@H](C(=O)O[C@H](C#N)c1cccc(Oc2ccccc2)c1)c1ccc(Cl)cc1 ?
### Response Yes

### Prompt For CCOP(=O)(NC(C)C)Oc1ccc(SC)c(C)c1 (stereo not given) , which call appears in the assay record?
### Response No

### Prompt Would you mind telling me which call this test gave CNc1cnn(-c2cccc(C(F)(F)F)c2)c(=O)c1Cl ?
### Response Yes

### Prompt Answer briefly: the call reported for FC(F)C(F)(F)OCC(Cn1cncn1)c1ccc(Cl)cc1Cl (stereo not given) in this assay.
### Response Yes

### Prompt Kindly provide the recorded test outcome for the following compound: CCOP(=S)(OCC)OC(Cl)C(Cl)(Cl)Cl (stereo not given)
### Response Yes

### Prompt Fill in: this test's call for CCC(=NOC/C=C/Cl)C1=C(O)CC(C2CCOCC2)CC1=O (stereo not given) is ___
### Response No

### Prompt Returns: the outcome recorded for COP(=O)(NC(C)=O)SC (stereo not given) in this assay.
### Response No

### Prompt Hi, do you know how CC(=NC#N)N(C)Cc1ccc(Cl)nc1 came out in this test?
### Response No

### Prompt // outcome(item) with item = CC(Oc1cccc(Cl)c1)C(=O)O (stereo not given)
### Response No

### Prompt Recorded call for CC1=NNC(=O)N(/N=C/c2cccnc2)C1 ?
### Response No

### Prompt Record lookup: outcome of this test for CSc1nnc(C(C)(C)C)c(=O)n1N ?
### Response No

### Prompt Look up the recorded call for Nc1c(Cl)cc([N+](=O)[O-])cc1Cl in this test.
### Response Yes

### Prompt Which outcome was assigned to COc1ccc(C(=CC(=O)N2CCOCC2)c2ccc(Cl)cc2)cc1OC in this test?
### Response Yes

### Prompt Could you please tell me the result logged for CCOP(=S)(OCC)Oc1ccc2c(C)c(Cl)c(=O)oc2c1 in this assay?
### Response Yes

### Prompt Test call for this compound, please: CN(C)[C@@H]1C(=O)C(C(N)=O)=C(O)[C@@]2(O)C(=O)C3=C(O)c4c(O)cccc4[C@@](C)(O)[C@H]3[C@H](O)[C@@H]12
### Response No

### Prompt Hi, sorry to bother you, what did the test record for CCOP(=S)(OCC)Oc1cc(C)nc(C(C)C)n1 ?
### Response No
